- protocol.summary: NCI Yeast Anticancer Drug Screen. Data for the rad50 strain (AID 155);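 further: 0% = growth of vehicle-only cultures of the same strain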
- recorded.conditions: S. cerevisiae rad50 strain growth inhibition; at 50.0 µM; hits give high values
The panel holds about 79,000 compounds, 15% with a hit somewhere; the sample as a whole holds those more often.
Reported growth inhibition is given for each of the following compounds.
Your answer should be a plain number; it is taken to be in %.

Solved entries (count: 4):
[[record]]
compound = "CCCCOC(=O)C(=O)C(CC(CC)C(=O)c1ccccc1)C(=O)C=C(C)C (stereo unspecified)"
unit_descriptor = "%"
measured_result = -28.9

[[record]]
compound = "C=CCOC(=O)OCCO"
unit_descriptor = "%"
measured_result = 5.95

[[record]]
compound = "COc1ccc2ccccc2c1"
unit_descriptor = "%"
measured_result = -21

[[record]]
compound = "Cc1cccc(C(=O)NNC(=O)c2ccc3ccccc3c2)c1"
unit_descriptor = "%"
measured_result = -60.3


Which value of growth inhibition has been reported for "COc1ccc([N+](=O)[O-])c(C(OC(C)=O)OC(C)=O)c1OC(C)=O" in the records? 4

Which value of growth inhibition has been reported for "Cc1ccc(N=Nc2ccc(C)cc2NC(=O)/C=C/c2ccccc2)cc1" in the records? -21.5
